- subject.of.test: MDM2 (Homo sapiens, UniProt Q00987)
- Sequence (Q00987 1-125): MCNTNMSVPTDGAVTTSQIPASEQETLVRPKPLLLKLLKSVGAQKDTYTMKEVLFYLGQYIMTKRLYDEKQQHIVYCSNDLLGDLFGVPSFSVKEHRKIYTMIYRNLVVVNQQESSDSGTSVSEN
- test.name: Competitive fluorescence polarization assay for MDM2
- Format: binding
- run.conditions: competitive FP assay, MDM2; read-out: IC50 (MDM2)
pIC50: −log10 of the molar value. Where a SMILES comes first, the peptide text is derived from it. Bridges are numbered along the chain shown (N, C = ends). [ ]: non-standard residue; d: D form. R8 = C=CCCCCCC[C@@](C)(N)C(=O)O; S5 = C=CCCC[C@](C)(N)C(=O)O; Nle = CCCC[C@H](N)C(=O)O
quantity.name: pIC50

Some solved cases for reference:
[[record]]
molecule = "CCCC[C@H](NC(=O)[C@H](C)NC(=O)[C@H](C)NC(=O)[C@]1(C)CCCC=CCCCCCC[C@@](C)(NC(=O)[C@H](Cc2ccccc2)NC(=O)[C@@H](NC(=O)[C@H](C)NC(=O)[C@H](C)NC(C)=O)[C@@H](C)O)C(=O)N[C@@H](C)C(=O)N[C@@H](Cc2ccc(O)cc2)C(=O)N[C@@H](Cc2c[nH]c3ccccc23)C(=O)N[C@@H](C)C(=O)N[C@@H](CCC(N)=O)C(=O)N[C@@H](CC(C)C)C(=O)N1)C(=O)N[C@@H](C)C(N)=O [compound 319] (Ac-AATF[R8]AYWAQL[S5]AA[Nle]A-NH2; staple 5-12)"
test_value = "7.00 to 8.00"

[[record]]
molecule = "CC(=O)N[C@@H](CCC(=O)O)C(=O)N[C@H](C(=O)N[C@@H](Cc1ccccc1)C(=O)N[C@]1(C)CCCCCCC=CCCC[C@@](C)(C(=O)N[C@@H](CO)C(=O)N[C@@H](C)C(=O)N[C@@H](C)C(N)=O)NC(=O)[C@H](CC(C)C)NC(=O)[C@H](CCC(N)=O)NC(=O)[C@H](C)NC(=O)[C@H](Cc2c[nH]c3ccccc23)NC(=O)[C@H](Cc2ccc(O)cc2)NC(=O)[C@H](C(C)C)NC1=O)[C@@H](C)O [compound 125] (Ac-ETF[R8]VYWAQL[S5]SAA-NH2; staple 4-11)"
test_value = "> 8.00"

[[record]]
molecule = "CC(=O)N[C@@H](CC(C)C)C(=O)N[C@H](C(=O)N[C@@H](Cc1ccccc1)C(=O)N[C@]1(C)CCCCCCC=CCCC[C@@](C)(C(=O)N[C@@H](C)C(=O)N[C@@H](C)C(=O)N[C@@H](CC(C)C)C(=O)N[C@H](C)C(N)=O)NC(=O)[C@H](CC(C)C)NC(=O)[C@H](CCC(N)=O)NC(=O)[C@H](C)NC(=O)[C@H](Cc2c[nH]c3ccccc23)NC(=O)[C@H](Cc2ccc(O)cc2)NC(=O)[C@H](C)NC1=O)[C@@H](C)O (single isomer, unassigned)"
test_value = "7.00 to 8.00"


Measured pIC50, CCCC[C@H](NC(=O)CN(C)C(=O)[C@H](C)NC(=O)[C@]1(C)CCCC=CCCCCCC[C@@](C)(NC(=O)[C@H](Cc2ccccc2)NC(=O)[C@@H](NC(=O)[C@H](CC(C)C)NC(C)=O)[C@@H](C)O)C(=O)N[C@@H](C)C(=O)N[C@@H](Cc2ccc(O)cc2)C(=O)N[C@@H](Cc2c[nH]c3ccccc23)C(=O)N[C@@H](C)C(=O)N[C@@H](CCC(N)=O)C(=O)N[C@@H](CC(C)C)C(=O)N1)C(=O)N[C@@H](C)C(N)=O (single isomer, unassigned) : > 8.00

Measured pIC50, CCCC[C@H](NC(=O)[C@H](C)NC(=O)[C@H](C)NC(=O)[C@]1(C)CCCC=CCCCCCC[C@@](C)(NC(=O)[C@H](Cc2ccccc2)NC(=O)[C@@H](NC(=O)[C@H](CC(C)C)NC(C)=O)[C@@H](C)O)C(=O)N[C@@H](C)C(=O)N[C@@H](Cc2ccc(O)cc2)C(=O)N(C)[C@@H](Cc2c[nH]c3ccccc23)C(=O)N[C@@H](C)C(=O)N[C@@H](CCC(N)=O)C(=O)N[C@@H](CC(C)C)C(=O)N1)C(=O)N[C@@H](C)C(N)=O (single isomer, unassigned) : 6.00 to 7.00
